assay: Acute toxicity (LD50); details: mouse, in vivo, ip; Mice

[
  {
    "SMILES_CODE": "O=C1CCCN1CCCN1CCN(c2ccc(F)cc2)CC1",
    "LD50 / mg/kg": 147
  }
]

---

tested on: cat; experiment: Effect on blood pressure and adrenaline vasopressor response in anaesthetized cat, i.v. (Table 2); format: in vivo; conditions: Felis catus, iv, dose 2.0 umol/kg i.v., read-out: Adrenaline vasopressure response % inhibition
Please note: criterion met applies when inhibition at 2 µmol/kg is 30% or greater, and criterion not met applies otherwise.

[
  {
    "COMPOUND": "O=C1CCCN1CCCN1CCN(c2ccc(F)cc2)CC1 [C6H4-4-F, n=1]",
    "CLASSIFICATION": "criterion not met"
  },
  {
    "COMPOUND": "O=C1CCCCN1CCCN1CCN(c2ccccn2)CC1 [2-Pyridyl, n=2]",
    "CLASSIFICATION": "criterion not met"
  },
  {
    "COMPOUND": "O=C1CCCCN1CCCN1CCN(c2ccc(F)cc2)CC1 [C6H4-4-F, n=2]",
    "CLASSIFICATION": "criterion met"
  },
  {
    "COMPOUND": "O=C1CCCCN1CCCN1CCN(c2ccc(Cl)cc2)CC1 [C6H4-4-Cl, n=2]",
    "CLASSIFICATION": "criterion not met"
  },
  {
    "COMPOUND": "O=C1CCCN1CCCN1CCN(c2cccc(F)c2)CC1 [C6H4-3-F, n=1]",
    "CLASSIFICATION": "criterion met"
  },
  {
    "COMPOUND": "O=C1CCCCN1CCCN1CCN(c2cccc(Cl)c2)CC1 [C6H4-3-Cl, n=2]",
    "CLASSIFICATION": "criterion met"
  }
]

---

test: Acute toxicity (LD50); conditions: mouse, in vivo, po; Mice
OBSERVABLE: LD50 (mg/kg)

[
  {
    "SMILES_CODE": "O=C1CCCN1CCCN1CCN(c2ccc(F)cc2)CC1",
    "OBSERVABLE": "LD50",
    "UNITS": "mg/kg",
    "EXPERIMENTAL_VALUE": 562
  }
]

---

test system: cat; experiment: Effect on blood pressure and adrenaline vasopressor response in anaesthetized cat, i.v. (Table 2); assay type: in vivo; conditions: Felis catus, iv, dose 2.0 umol/kg i.v., read-out: Adrenaline vasopressure response % inhibition
Reported inhibition at 2 µmol/kg by item:

[
  {
    "SMILES_CODE": "O=C1CCCN1CCCN1CCN(c2cccc(Cl)c2)CC1",
    "inhibition at 2 µmol/kg": "-20 to 0%"
  },
  {
    "SMILES_CODE": "O=C1CCCCN1CCCN1CCN(c2cccc(C(F)(F)F)c2)CC1",
    "inhibition at 2 µmol/kg": "-20 to 0%"
  },
  {
    "SMILES_CODE": "CCc1ccccc1N1CCN(CCCN2CCCC2=O)CC1",
    "inhibition at 2 µmol/kg": "-20 to 0%"
  }
]

Hello, the source for this data is patent EP0911330B1, in case you need it.
